This collection of values is drawn from patent US20190374526A1.

TESTED ON: hPRDM9 (amino acids 195-385) (Homo sapiens, UniProt Q9NQV7)
Sequence (Q9NQV7 195-385): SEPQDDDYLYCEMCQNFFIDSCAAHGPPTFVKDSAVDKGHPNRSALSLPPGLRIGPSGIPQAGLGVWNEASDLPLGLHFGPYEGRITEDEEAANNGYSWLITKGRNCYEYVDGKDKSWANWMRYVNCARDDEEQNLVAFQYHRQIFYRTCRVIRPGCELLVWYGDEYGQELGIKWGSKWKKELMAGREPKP
pIC50: −log10 of the molar value.
Measured pIC50, listed per entry for reference.

>  <MOLECULE>
Cc1cc(N2CC3(CCCN(c4nc(-c5cccc(Br)c5)no4)C3)C2)ccn1 [Compound 117]

>  <TESTED ON>
hPRDM9 (amino acids 195-385) (Homo sapiens, UniProt Q9NQV7)

>  <COMPARISON SYMBOL>
=

>  <pIC50>
5.70

$$$$
>  <MOLECULE>
Cc1cc(N2CC3(CCCN(C(=O)Nc4cc(Cl)cc(Cl)c4)C3)C2)ccn1 [Compound 240]

>  <TESTED ON>
hPRDM9 (amino acids 195-385) (Homo sapiens, UniProt Q9NQV7)

>  <COMPARISON SYMBOL>
≤

>  <pIC50>
4.30

$$$$
>  <MOLECULE>
Cc1cc(N2CC(C3CCCCN3c3nc(-c4cc(Cl)cc(Cl)c4)no3)C2)ccn1 (centres unmarked) [Compound 44]

>  <TESTED ON>
hPRDM9 (amino acids 195-385) (Homo sapiens, UniProt Q9NQV7)

>  <COMPARISON SYMBOL>
=

>  <pIC50>
6.30

$$$$
>  <MOLECULE>
Cc1cc(N2CCC3CN(c4nc(-c5cc(Cl)cc(Cl)c5)no4)CC3C2)ccn1 (centres unmarked) [Compound 219]

>  <TESTED ON>
hPRDM9 (amino acids 195-385) (Homo sapiens, UniProt Q9NQV7)

>  <COMPARISON SYMBOL>
=

>  <pIC50>
5.37

$$$$
>  <MOLECULE>
COc1cc(OC)cc(-c2noc(N3CCCC4(CCN(c5ccncc5OC)CC4)C3)n2)c1 [Compound 237]

>  <TESTED ON>
hPRDM9 (amino acids 195-385) (Homo sapiens, UniProt Q9NQV7)

>  <COMPARISON SYMBOL>
=

>  <pIC50>
5.14

$$$$
